# testedSystem: KGF receptor (KGFR) (Mus musculus)
# Construct: expressed in transfected cells; host or cells: NIH/3T3
# Sequence (P21803 22-707 isoform P21803-2 limits assumed): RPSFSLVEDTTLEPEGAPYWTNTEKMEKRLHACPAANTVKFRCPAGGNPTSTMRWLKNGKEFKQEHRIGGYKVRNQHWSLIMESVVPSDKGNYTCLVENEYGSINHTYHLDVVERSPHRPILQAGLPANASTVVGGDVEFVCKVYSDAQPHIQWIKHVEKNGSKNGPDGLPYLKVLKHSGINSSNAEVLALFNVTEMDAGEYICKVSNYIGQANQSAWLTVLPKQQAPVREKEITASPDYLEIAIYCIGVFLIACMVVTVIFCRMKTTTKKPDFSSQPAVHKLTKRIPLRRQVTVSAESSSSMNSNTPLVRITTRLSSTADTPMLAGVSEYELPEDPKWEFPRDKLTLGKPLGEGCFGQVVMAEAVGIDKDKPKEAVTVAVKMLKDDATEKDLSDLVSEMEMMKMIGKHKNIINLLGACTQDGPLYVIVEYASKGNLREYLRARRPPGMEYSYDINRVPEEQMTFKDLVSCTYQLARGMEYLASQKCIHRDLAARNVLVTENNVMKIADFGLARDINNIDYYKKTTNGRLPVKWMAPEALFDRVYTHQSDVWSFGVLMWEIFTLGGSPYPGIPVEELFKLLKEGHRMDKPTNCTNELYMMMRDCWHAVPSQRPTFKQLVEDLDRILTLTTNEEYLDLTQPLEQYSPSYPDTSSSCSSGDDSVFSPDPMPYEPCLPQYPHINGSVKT
# methodSummary: [125I]-KGF binding to NIH/3T3 cells overexpressing KGFR (competition)
# conditionParameters: NIH3T3/KGFR transfectants; read-out: displacement of 50% of the radiolabeled KGF
No end group written: not given here.

[
  {
    "monomerSequence": "HSGINSSNAEVLALFNVTEMDAGEY [peptide 412]",
    "IC50": "~4 µM"
  },
  {
    "monomerSequence": "HSGINSSNAEVLALFNVTEM [peptide 367]",
    "IC50": "~4 µM"
  }
]
